Quick note: these are pIC50 numbers for system: Estrogen receptor (Homo sapiens, UniProt P03372)
Sequence (P03372 whole entry): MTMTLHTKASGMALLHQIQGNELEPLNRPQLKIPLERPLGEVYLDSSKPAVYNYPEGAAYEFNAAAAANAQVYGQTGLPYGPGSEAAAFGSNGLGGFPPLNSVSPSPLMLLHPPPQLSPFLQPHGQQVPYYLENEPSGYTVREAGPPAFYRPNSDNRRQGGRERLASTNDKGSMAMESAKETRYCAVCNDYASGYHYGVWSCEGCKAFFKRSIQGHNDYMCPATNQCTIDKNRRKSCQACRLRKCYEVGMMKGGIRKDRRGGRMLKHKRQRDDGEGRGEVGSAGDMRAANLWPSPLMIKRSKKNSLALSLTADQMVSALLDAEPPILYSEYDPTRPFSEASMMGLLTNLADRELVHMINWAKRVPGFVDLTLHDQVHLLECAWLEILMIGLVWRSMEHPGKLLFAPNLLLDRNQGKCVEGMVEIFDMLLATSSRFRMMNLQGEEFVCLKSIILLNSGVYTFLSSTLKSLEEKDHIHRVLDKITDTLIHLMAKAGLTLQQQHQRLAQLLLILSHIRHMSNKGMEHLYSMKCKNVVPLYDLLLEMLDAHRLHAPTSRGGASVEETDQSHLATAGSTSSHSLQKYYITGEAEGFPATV
The meaning of pIC50 here: minus log10 of the concentration in molar units.

Examples with their reported pIC50 follow.
| molecule | experimental_result |
| --- | --- |
| CC1Cc2c(ccc3[nH]ncc23)C(c2c(F)cc(/C=C/C(=O)O)cc2F)N1CC(C)(C)F (centres undefined) | 9.11 |
| CC1Cc2sc3ccccc3c2C(c2c(F)cc(/C=C/C(=O)O)cc2F)N1CC(C)(C)F (centres undefined) | 8.31 |
| CC1Cc2cc3c(cc2C(c2c(F)cc(/C=C/C(=O)O)cc2F)N1CC(C)(C)F)OCO3 (centres undefined) | 9.11 |

Kindly review the next molecule as well.
[ask] Request - read-out pIC50 | tested on Estrogen receptor (Homo sapiens, UniProt P03372) | molecule CCn1cc(-c2cc3c(cc2F)C(c2c(F)cc(/C=C/C(=O)O)cc2F)N(CC(C)(C)F)C(C)C3)cn1 (centres undefined)
[reply] 8.93
